System: U2OS
Measurement Protocol: Incucyte cell viability with U2OS; further: filed as whole numbers so only -1 and 0 and 1 occur
Type: toxicity, cell-based
Condition Parameters: human, 18 h, 10 µM, compound concentration 10 uM, replicate number 1, timepoint 18 hours
Measurement Label: Growth Rate
Give only the figure.

Known results for molecules:
CC(C)c1noc(N2CCC(COc3ccc(-c4ccc(S(C)(=O)=O)cc4)nc3)CC2)n1 : 1
CC(C)CC(=O)Nc1[nH]nc2c1CN(C(=O)C1CCN(C)CC1)C2(C)C : 0
Cl.O=C(O)c1cc(-c2ccc(C3CCNCC3)cc2)c2ccc(-c3ccc(C(F)(F)F)cc3)cc2c1 : 0
CC1(C)CCC(C)(C)c2cc(C(=O)Nc3ccc(C(=O)O)cc3)ccc21 : 1

Documented Growth Rate of O=c1[nH]c2ccccc2n1C1CCN(Cc2ccc(-c3[nH]c4cc5ncnc5cc4nc3-c3ccccc3)cc2)CC1 : 0

Documented Growth Rate of O=C([O-])c1cc2ccccc2c(Cc2c(O)c(C(=O)[O-])cc3ccccc23)c1O.[Na+].[Na+] : 0

Documented Growth Rate of O=S1(=O)c2cccc3cccc(c23)N1CCCN1CCN(c2ccc(F)cc2)CC1 : 1

Documented Growth Rate of O=C(NCC(=O)N1CCCC1)Nc1ccc2cnccc2c1 : 1

Documented Growth Rate of C=CC(=O)Nc1ccc2[nH]c(=O)n(C3CCN(Cc4ccc(-c5nc6cc[nH]c(=O)c6cc5-c5ccccc5)cc4)CC3)c2c1 : 1
